Values compiled from patent US8404713B2.

- TARGET ENTITY: Human PARP-1 enzyme (Homo sapiens)
- Construct: purchased Trevigen
- Sequence (P09874 whole entry): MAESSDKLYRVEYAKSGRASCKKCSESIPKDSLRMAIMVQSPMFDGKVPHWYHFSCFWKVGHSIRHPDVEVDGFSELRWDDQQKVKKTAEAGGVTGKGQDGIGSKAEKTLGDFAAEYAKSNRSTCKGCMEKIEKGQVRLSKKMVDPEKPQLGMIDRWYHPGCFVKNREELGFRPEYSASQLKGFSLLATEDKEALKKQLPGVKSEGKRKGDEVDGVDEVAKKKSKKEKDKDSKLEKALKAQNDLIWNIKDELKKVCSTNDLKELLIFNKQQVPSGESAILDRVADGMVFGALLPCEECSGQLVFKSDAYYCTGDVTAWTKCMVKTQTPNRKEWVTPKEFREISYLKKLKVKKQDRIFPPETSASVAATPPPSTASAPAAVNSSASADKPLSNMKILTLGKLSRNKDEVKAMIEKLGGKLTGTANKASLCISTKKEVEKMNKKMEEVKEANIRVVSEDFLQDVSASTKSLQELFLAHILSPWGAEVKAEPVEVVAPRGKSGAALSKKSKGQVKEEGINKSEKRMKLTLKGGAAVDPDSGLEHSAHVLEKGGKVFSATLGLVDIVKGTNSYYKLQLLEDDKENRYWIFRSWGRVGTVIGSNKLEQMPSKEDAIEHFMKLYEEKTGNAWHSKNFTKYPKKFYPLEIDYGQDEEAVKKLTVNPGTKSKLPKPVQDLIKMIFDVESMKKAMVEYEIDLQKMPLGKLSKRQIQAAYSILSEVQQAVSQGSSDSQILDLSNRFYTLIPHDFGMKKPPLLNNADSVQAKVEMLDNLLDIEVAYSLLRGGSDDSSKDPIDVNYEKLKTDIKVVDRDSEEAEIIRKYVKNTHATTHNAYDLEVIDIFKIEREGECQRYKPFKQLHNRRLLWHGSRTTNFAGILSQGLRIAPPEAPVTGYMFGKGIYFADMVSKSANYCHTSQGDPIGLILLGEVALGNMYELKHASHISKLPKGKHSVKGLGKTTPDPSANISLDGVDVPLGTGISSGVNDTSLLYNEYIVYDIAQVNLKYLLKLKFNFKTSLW
- EXPERIMENT SUMMARY: In vitro scintillation proximity assay (SPA) for PARP-1 inhibitory activity
- Assay type: biochemical
- ASSAY CONTEXT: nicked DNA activated PARP-1, [3H]-NAD+, biotinylated histones; tested between 10^-5 M and 3x10^-9 M; read-out: in vitro SPA assay PARP-1 pIC50 (converted)

- MOLECULE: "CCc1cc2ccc(CNCCc3c[nH]c4ccccc34)cc2[nH]c1=O"
  IC50: "13.4 nM"
- MOLECULE: "CCc1cc2ccc(CNCc3ccccc3)cc2[nH]c1=O"
  IC50: "42.9 nM"
- MOLECULE: "CCc1cc2ccc(CN3CCN(c4ncc(C(N)=O)cn4)CC3)cc2[nH]c1=O"
  IC50: "7.4 nM"
- MOLECULE: "CCc1cc2ccc(CN3CCN(c4ccccc4Cl)CC3)cc2[nH]c1=O"
  IC50: "0.566 nM"
- MOLECULE: "CCc1cc2ccc(CN3CCCC3)cc2[nH]c1=O"
  IC50: "5.36 nM"
- MOLECULE: "Cc1cc2ccc(C(C3CCCCC3)N3CCN(c4ccc(C#N)cn4)CC3)cc2[nH]c1=O (stereo not shown)"
  IC50: "275 nM"
- MOLECULE: "CCc1cc2ccc(CN3CCN(c4ncccn4)CC3)cc2[nH]c1=O"
  IC50: "14.3 nM"
- MOLECULE: "Cc1cc2ccc(C(C)N3CCN(c4ncccc4C(F)(F)F)CC3)cc2[nH]c1=O (stereo not shown)"
  IC50: "225 nM"
- MOLECULE: "CCc1cc2ccc(CN3CCN(c4ccccc4)CC3)cc2[nH]c1=O"
  IC50: "0.938 nM"
- MOLECULE: "CCc1cc2ccc(CN3CCC(Cc4ccccc4)CC3)cc2[nH]c1=O"
  IC50: "403 nM"

* * *

- TARGET ENTITY: TANK-2 enzyme (Homo sapiens, UniProt Q9H2K2)
- Construct: made in house
- Sequence (Q9H2K2 whole entry): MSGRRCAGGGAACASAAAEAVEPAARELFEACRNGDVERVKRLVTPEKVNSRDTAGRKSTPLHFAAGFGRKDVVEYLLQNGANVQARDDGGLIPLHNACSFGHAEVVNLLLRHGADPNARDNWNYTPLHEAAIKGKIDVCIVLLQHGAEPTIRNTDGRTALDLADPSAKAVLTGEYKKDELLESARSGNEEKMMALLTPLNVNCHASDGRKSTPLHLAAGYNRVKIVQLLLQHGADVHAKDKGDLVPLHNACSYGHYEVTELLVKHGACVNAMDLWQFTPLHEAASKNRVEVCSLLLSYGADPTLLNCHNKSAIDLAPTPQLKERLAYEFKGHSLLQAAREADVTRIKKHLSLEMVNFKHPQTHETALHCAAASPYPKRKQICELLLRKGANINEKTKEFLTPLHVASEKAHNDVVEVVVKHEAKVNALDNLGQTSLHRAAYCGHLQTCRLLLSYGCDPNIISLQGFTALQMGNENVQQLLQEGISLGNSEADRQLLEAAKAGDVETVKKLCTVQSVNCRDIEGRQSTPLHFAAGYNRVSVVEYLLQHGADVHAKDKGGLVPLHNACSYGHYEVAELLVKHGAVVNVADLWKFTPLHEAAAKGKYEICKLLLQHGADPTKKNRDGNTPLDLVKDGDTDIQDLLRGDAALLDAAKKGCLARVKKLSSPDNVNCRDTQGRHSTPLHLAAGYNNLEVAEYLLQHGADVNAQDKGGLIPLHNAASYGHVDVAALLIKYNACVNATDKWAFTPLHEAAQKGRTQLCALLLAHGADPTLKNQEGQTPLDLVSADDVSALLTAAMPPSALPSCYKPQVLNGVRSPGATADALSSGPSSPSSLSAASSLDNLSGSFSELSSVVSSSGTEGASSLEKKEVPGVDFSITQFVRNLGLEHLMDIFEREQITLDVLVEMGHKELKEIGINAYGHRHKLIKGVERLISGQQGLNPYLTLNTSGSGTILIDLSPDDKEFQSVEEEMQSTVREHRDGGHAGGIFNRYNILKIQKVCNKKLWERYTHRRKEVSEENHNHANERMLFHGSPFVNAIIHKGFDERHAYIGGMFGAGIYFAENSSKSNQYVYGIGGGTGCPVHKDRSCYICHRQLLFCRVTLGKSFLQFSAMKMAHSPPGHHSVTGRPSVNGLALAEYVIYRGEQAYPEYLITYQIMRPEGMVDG
- EXPERIMENT SUMMARY: In vitro scintillation proximity assay (SPA) for TANK-2 inhibitory activity
- Type: biochemical
- ASSAY CONTEXT: auto-poly(ADP-ribosyl)ation, Ni flash plates; 96-well results if available, otherwise 384-well; tested between 10^-5 M and 3x10^-8 M; read-out: in vitro SPA assay TANK-2 pIC50 (converted)
Let's look at some compounds and their measured IC50.
QUANTITY NAME: IC50

- COMPOUND: "Cc1cc2ccc(C(C3CCCCC3)N3CCN(c4ccccc4C#N)CC3)cc2[nH]c1=O (stereo not drawn) [Compound 67]"
  TARGET ENTITY: "TANK-2 enzyme (Homo sapiens, UniProt Q9H2K2)"
  TEST VALUE: "> 10 µM"
- COMPOUND: "Cc1cc2ccc(C(C3CCCCC3)N3CCC(c4ccccc4)CC3)cc2[nH]c1=O (stereo not drawn) [Compound 65]"
  TARGET ENTITY: "TANK-2 enzyme (Homo sapiens, UniProt Q9H2K2)"
  TEST VALUE: "> 10 µM"
- COMPOUND: "COCCNC1CCN(C(C)c2ccc3cc(C)c(=O)[nH]c3c2)CC1 (stereo not drawn) [Compound 55]"
  TARGET ENTITY: "TANK-2 enzyme (Homo sapiens, UniProt Q9H2K2)"
  TEST VALUE: "> 10 µM"

* * *

- TARGET ENTITY: Human PARP-1 enzyme (Homo sapiens)
- Construct: purchased Trevigen
- EXPERIMENT SUMMARY: In vitro scintillation proximity assay (SPA) for PARP-1 inhibitory activity
- Assay type: biochemical
- ASSAY CONTEXT: nicked DNA activated PARP-1, [3H]-NAD+, biotinylated histones; tested between 10^-5 M and 3x10^-9 M; read-out: in vitro SPA assay PARP-1 pIC50 (converted)
Criterion: IC50 strictly under 20 nM. Met: true. Not met: false.

- COMPOUND: "CCc1cc2ccc(CNCCN3CCN(c4ncccn4)CC3)cc2[nH]c1=O"
  CLASS: "false"
- COMPOUND: "Cc1cc2ccc(C(C(C)C)N3CCN(c4ccc(C#N)cn4)CC3)cc2[nH]c1=O (stereo not shown)"
  CLASS: "false"
- COMPOUND: "Cc1cc2ccc(C(C)N3CCN(C4CCCCC4)CC3)cc2[nH]c1=O (stereo not shown)"
  CLASS: "false"
- COMPOUND: "Cc1cc2ccc(C(C)N3CCN(c4ccccc4C#N)CC3)cc2[nH]c1=O (stereo not shown)"
  CLASS: "true"
- COMPOUND: "CCc1cc2ccc(CN3CCN(CCOC)CC3)cc2[nH]c1=O"
  CLASS: "false"
- COMPOUND: "Cc1cc2ccc(C(C)N3CCN(c4cccc(Cl)c4)CC3)cc2[nH]c1=O (stereo not shown)"
  CLASS: "false"
- COMPOUND: "COc1ccccc1N1CCN(C(c2ccc3cc(C)c(=O)[nH]c3c2)C2CCCCC2)CC1 (stereo not shown)"
  CLASS: "false"
- COMPOUND: "CCc1cc2ccc(CN3CCN(c4cccc(Cl)c4)CC3)cc2[nH]c1=O"
  CLASS: "true"
- COMPOUND: "Cc1cc2ccc(C(C3CCCCC3)N3CC=C(c4ccccc4)CC3)cc2[nH]c1=O (stereo not shown)"
  CLASS: "false"
- COMPOUND: "CCc1cc2ccc(C(C)NCCc3c[nH]c4ccccc34)cc2[nH]c1=O (stereo not shown)"
  CLASS: "false"
- COMPOUND: "CCc1cc2ccc(C(O)CN3CCC(Cc4ccccc4)CC3)cc2[nH]c1=O (stereo not shown)"
  CLASS: "false"
- COMPOUND: "CCc1cc2ccc(CN3CC=C(c4ccccc4)CC3)cc2[nH]c1=O"
  CLASS: "true"
- COMPOUND: "CCc1cc2ccc(C(CO)N3CCC(Cc4ccccc4)CC3)cc2[nH]c1=O (stereo not shown)"
  CLASS: "false"
- COMPOUND: "CCc1cc2ccc(CN3CCN(CCc4ccccc4)CC3)cc2[nH]c1=O"
  CLASS: "true"
- COMPOUND: "CCc1cc2ccc(CN3CCC(c4ccccc4)CC3)cc2[nH]c1=O"
  CLASS: "true"
- COMPOUND: "CCc1cc2ccc(C(CO)N3CCN(c4ncccn4)CC3)cc2[nH]c1=O (stereo not shown)"
  CLASS: "false"
- COMPOUND: "CCc1cc2ccc(CNCCCc3ccccc3)cc2[nH]c1=O"
  CLASS: "true"
- COMPOUND: "CCc1cc2ccc(C(CO)N3CCOCC3)cc2[nH]c1=O (stereo not shown)"
  CLASS: "false"
- COMPOUND: "Cc1cc2ccc(C(C)N3CCCCC3)cc2[nH]c1=O (stereo not shown)"
  CLASS: "false"
- COMPOUND: "CCc1cc2ccc(CNCc3ccncc3)cc2[nH]c1=O"
  CLASS: "false"
- COMPOUND: "CCc1cc2ccc(CNCc3ccc(F)cc3)cc2[nH]c1=O"
  CLASS: "false"
- COMPOUND: "Cc1cc2ccc(C(=O)N3CC=C(c4ccccc4)CC3)cc2[nH]c1=O"
  CLASS: "false"
- COMPOUND: "Cc1cc2ccc(CN3CCN(c4ccccn4)CC3)cc2[nH]c1=O"
  CLASS: "true"
- COMPOUND: "CCc1cc2ccc(CCCN3CCN(c4ccc(C#N)cn4)CC3)cc2[nH]c1=O"
  CLASS: "false"
- COMPOUND: "CCOC(=O)c1cnc(N2CCN(Cc3ccc4cc(CC)c(=O)[nH]c4c3)CC2)nc1"
  CLASS: "false"
- COMPOUND: "CCc1cc2ccc(CN3Cc4ccccc4C3)cc2[nH]c1=O"
  CLASS: "false"
- COMPOUND: "Cc1cc2ccc(C(C3CCCCC3)N3CCN(c4ccccn4)CC3)cc2[nH]c1=O (stereo not shown)"
  CLASS: "false"
- COMPOUND: "Cc1cc2ccc(CN3CCC(c4ccccc4)CC3)cc2[nH]c1=O"
  CLASS: "true"
- COMPOUND: "CCc1cc2ccc(CN3CCN(c4ccc(OC)cc4)CC3)cc2[nH]c1=O"
  CLASS: "true"
- COMPOUND: "Cc1cc2ccc(C(C)N3CC=C(c4ccccc4)CC3)cc2[nH]c1=O (stereo not shown)"
  CLASS: "true"
